Consider the following compounds and their measured % I (0.5 μM) readings.
Molecular target: canine TRPM8 (Canis lupus familiaris, UniProt Q1A7N1)
Construct: expressed in transfected cells
Sequence (Q1A7N1 1-1104): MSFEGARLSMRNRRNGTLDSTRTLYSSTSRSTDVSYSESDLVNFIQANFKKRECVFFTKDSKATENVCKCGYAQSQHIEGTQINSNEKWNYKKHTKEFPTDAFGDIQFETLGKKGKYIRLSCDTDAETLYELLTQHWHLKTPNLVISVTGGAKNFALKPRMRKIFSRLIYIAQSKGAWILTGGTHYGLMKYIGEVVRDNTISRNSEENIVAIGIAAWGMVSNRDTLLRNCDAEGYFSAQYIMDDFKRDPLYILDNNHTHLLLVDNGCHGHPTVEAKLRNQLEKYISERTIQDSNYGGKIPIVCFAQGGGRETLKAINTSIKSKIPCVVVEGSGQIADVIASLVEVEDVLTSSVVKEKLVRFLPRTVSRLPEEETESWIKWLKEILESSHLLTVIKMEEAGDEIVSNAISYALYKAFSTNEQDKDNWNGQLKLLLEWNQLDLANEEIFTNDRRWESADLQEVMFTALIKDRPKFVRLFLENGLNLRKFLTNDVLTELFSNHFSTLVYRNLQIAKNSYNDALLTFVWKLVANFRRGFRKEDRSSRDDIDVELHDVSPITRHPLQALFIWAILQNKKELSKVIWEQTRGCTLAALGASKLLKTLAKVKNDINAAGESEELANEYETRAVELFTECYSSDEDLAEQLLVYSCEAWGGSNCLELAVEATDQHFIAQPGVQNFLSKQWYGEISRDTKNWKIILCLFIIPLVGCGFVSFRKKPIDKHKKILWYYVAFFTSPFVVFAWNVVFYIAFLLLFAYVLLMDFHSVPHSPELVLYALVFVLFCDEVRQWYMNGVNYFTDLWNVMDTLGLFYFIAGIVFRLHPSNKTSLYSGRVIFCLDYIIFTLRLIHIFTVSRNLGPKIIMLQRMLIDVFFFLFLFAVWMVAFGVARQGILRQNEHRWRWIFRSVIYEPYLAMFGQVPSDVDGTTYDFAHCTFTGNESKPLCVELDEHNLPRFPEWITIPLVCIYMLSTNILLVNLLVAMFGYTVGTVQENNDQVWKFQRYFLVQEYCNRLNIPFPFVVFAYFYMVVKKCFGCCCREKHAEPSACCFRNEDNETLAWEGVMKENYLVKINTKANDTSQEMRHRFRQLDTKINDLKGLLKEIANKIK
Assay: In vitro canine TRPM8 functional assay (Ca2+-sensitive dye, icilin activation; Table 4 TRPM8 Screening)
Format: cell-based
Conditions: compound at 0.5 μM; HEK293 cells expressing canine TRPM8, icilin activation
Numbers only here, please. The scale is %.

# annotated cases, reported % I (0.5 μM) shown
- compound: "CCCS(=O)(=O)n1c(C(Cc2ccc(F)c(C(F)(F)F)c2)P(=O)(OC(C)C)OC(C)C)c(Br)c2ccccc21 (stereo not shown)"
  assay-system: "canine TRPM8 (Canis lupus familiaris, UniProt Q1A7N1)"
  % I (0.5 μM) [%]: 72
- compound: "CC(C)OP(=O)(OC(C)C)C(Cc1ccc(F)c(F)c1)c1sc2ncccc2c1Br (racemic)"
  assay-system: "canine TRPM8 (Canis lupus familiaris, UniProt Q1A7N1)"
  % I (0.5 μM) [%]: 99
- compound: "CCOP(=O)(OCC)C(Cc1cc(O)c(Cl)cc1F)c1sc2ccccc2c1Br (racemic)"
  assay-system: "canine TRPM8 (Canis lupus familiaris, UniProt Q1A7N1)"
  % I (0.5 μM) [%]: 98

Incoming: Consider the compound COc1cc(CC(c2sc3ccccc3c2Br)P(=O)(OC(C)C)OC(C)C)ccc1F (stereo not shown) and give its measured % I (0.5 μM).
Outgoing: 98

----------
Molecular target: canine TRPM8 (Canis lupus familiaris)
Construct: expressed in transfected cells
Assay: In vitro canine TRPM8 functional assay (Ca2+-sensitive dye, icilin activation; Table 4 TRPM8 Screening)
Format: cell-based
Conditions: compound at 1 μM; HEK293 cells expressing canine TRPM8, icilin activation
Readings of % I (1 μM) for the listed compounds
Only the number, expressed in %, is required.

Incoming: Quick one: % I (1 μM) for CCOP(=O)(CC(C)C)C(Cc1ccc(F)c(F)c1)c1sc2ccccc2c1C (stereo not shown) [Cpd 36] ?
Outgoing: 100

Incoming: Entry CCOP(=O)(OCC)C(Cc1ccccc1Cl)c1cc2ccccc2s1 (stereo not shown) : reported % I (1 μM) = ?
Outgoing: 90

Incoming: # % I (1 μM) lookup, item CCOP(=O)(OCC)C(Cc1cc2c(cc1Cl)OCO2)c1sc2ccccc2c1C (stereo not shown)
Outgoing: 98

Incoming: Sample CCOP(=O)(OCC)C(Cc1cc(C(F)(F)F)ccc1F)c1sc2ccccc2c1C (stereo not shown) — what was its % I (1 μM)?
Outgoing: 100

Incoming: Consider the compound CCOP(=O)(OCC)C(Cc1cc(C(F)(F)F)ccc1Cl)c1sc2ccccc2c1C (stereo not shown) and give its measured % I (1 μM).
Outgoing: 100

----------
Target: canine TRPM8 (Canis lupus familiaris, UniProt Q1A7N1)
Construct: expressed in transfected cells
Assay: In vitro canine TRPM8 functional assay (Ca2+-sensitive dye, icilin activation; Table 4 TRPM8 Screening)
Assay type: cell-based
Settings: compound at 0.5 μM; HEK293 cells expressing canine TRPM8, icilin activation
parameter: % I (0.5 μM) (%)
I only need the number, in %, no unit after it.

A selection of reference data follows.
- compound: "CC(C)OP(=O)(OC(C)C)[C@H](Cc1ccc(F)c(F)c1)c1sc2ccccc2c1Br"
  units-symbol: "%"
  result: 93
- compound: "CCOP(=O)(OCC)C(Cc1cccc(C(F)(F)F)c1)c1sc2ccccc2c1Br (centres unmarked)"
  units-symbol: "%"
  result: 100
- compound: "CCOP(=O)(OCC)C(Cc1ccc(F)c(F)c1)c1sc2ccccc2c1-c1ccccc1F (racemic)"
  units-symbol: "%"
  result: 100

Incoming: # lookup: % I (0.5 μM) of CC(C)CCOP(=O)(OCCC(C)C)C(Cc1ccc(F)c(F)c1)c1sc2ccccc2c1Br (racemic)
Outgoing: 97

Incoming: Find the recorded % I (0.5 μM) belonging to CCOP(=O)(OCC)C(Cc1ccc(F)c(F)c1)c1sc2ccccc2c1-c1cccc(C(=O)OC)c1 (centres unmarked) and report it.
Outgoing: 68

Incoming: Which % I (0.5 μM) is reported for this compound? CCOP(=O)(OCC)C(Cc1ccc(O)c(C(F)(F)F)c1)c1sc2ccccc2c1Br (centres unmarked)
Outgoing: 70

Incoming: Look up % I (0.5 μM) for this compound: CC(C)OP(=O)(OC(C)C)C(Cc1ccc(S(C)(=O)=O)cc1)c1sc2ccccc2c1Br (centres unmarked)
Outgoing: 44

Incoming: Quick one: % I (0.5 μM) for CCOP(=O)(OCC)C(Cc1ccc(F)c(C(F)(F)F)c1)c1sc2ccccc2c1Cl (racemic) ?
Outgoing: 99

Incoming: % I (0.5 μM) lookup needed for CC(C)OP(=O)(OC(C)C)C(Cc1cccc(O)c1)c1sc2ccccc2c1Br (centres unmarked) , thanks.
Outgoing: 97

----------
Molecular target: canine TRPM8 (Canis lupus familiaris, UniProt Q1A7N1)
Construct: expressed in transfected cells
Assay: In vitro canine TRPM8 functional assay (Ca2+-sensitive dye, icilin activation; Table 4 TRPM8 Screening)
Type: cell-based
Settings: compound at 0.5 μM; HEK293 cells expressing canine TRPM8, icilin activation
Overview of reported % I (0.5 μM) across a group of molecules:
Only the number, expressed in %, is required.

Solved cases below.
- molecule: "CCOP(=O)(OCC)C(Cc1ccc(F)c(F)c1)c1sc2ccccc2c1-c1cccc(C(N)=O)c1 (racemic)"
  % I (0.5 μM) / %: 79
- molecule: "CCOP(=O)(OCC)C(Cc1c(F)c(F)c(O)c(F)c1F)c1sc2ccccc2c1Br (racemic)"
  % I (0.5 μM) / %: 94

Okay, now this molecule:
Incoming: Look up % I (0.5 μM) with canine TRPM8 (Canis lupus familiaris, UniProt Q1A7N1) for this molecule: CC(C)OP(=O)(OC(C)C)C(Cc1cccc(O)c1F)c1sc2ccccc2c1Br (racemic)
Outgoing: 97

----------
Reported % I (1 μM) values follow for various compounds
Target: canine TRPM8 (Canis lupus familiaris)
Construct: expressed in transfected cells
Assay: In vitro canine TRPM8 functional assay (Ca2+-sensitive dye, icilin activation; Table 4 TRPM8 Screening)
Assay type: cell-based
Settings: compound at 1 μM; HEK293 cells expressing canine TRPM8, icilin activation
Supply the numeric figure in %, leaving out any unit text.

Incoming: Missing value: % I (1 μM), canine TRPM8 (Canis lupus familiaris), entry CC(C)OP(=O)(OC(C)C)C(Cc1ccc(F)cc1)c1sc2cc(Br)ccc2c1Br (centres unmarked) [Cpd 200] . Fill in?
Outgoing: 81

Incoming: So what % I (1 μM) did CCOP(=O)(OCC)C(Cc1ccc2ccccc2c1)c1cc2ccccc2s1 (centres unmarked) [Cpd 83] get with canine TRPM8 (Canis lupus familiaris)?
Outgoing: 84

----------
In this section we review reported % I (0.5 μM) values for a set of compounds.
Molecular target: canine TRPM8 (Canis lupus familiaris)
Construct: expressed in transfected cells
Assay: In vitro canine TRPM8 functional assay (Ca2+-sensitive dye, icilin activation; Table 4 TRPM8 Screening)
Assay type: cell-based
Conditions: compound at 0.5 μM; HEK293 cells expressing canine TRPM8, icilin activation
Answer by giving the amount and then stating its unit.

- compound: "COCCOCCOP(=O)(OCCOCCOC)C(Cc1ccc(F)c(F)c1)c1sc2ccccc2c1Br (centres unmarked) [Cpd 210]"
  % I (0.5 μM): "62%"
- compound: "CCOP(=O)(OCC)C(Cc1ccc(OC)c(C(F)(F)F)c1)c1sc2ccccc2c1Br (racemic) [Cpd 152]"
  % I (0.5 μM): "92%"
- compound: "CCOP(=O)(OCC)C(Cc1ccc(O)c(F)c1)c1sc2ccccc2c1Br (centres unmarked) [Cpd 226]"
  % I (0.5 μM): "34%"
- compound: "CCOP(=O)(OCC)C(Cc1ccc(OC)c(C(F)(F)F)c1)c1sc2ccccc2c1Cl (racemic) [Cpd 292]"
  % I (0.5 μM): "99%"
- compound: "CC(C)OP(=O)(OC(C)C)C(Cc1cccc(C(F)(F)F)c1Cl)c1sc2ccccc2c1Cl (centres unmarked) [Cpd 177]"
  % I (0.5 μM): "96%"
- compound: "CCOP(=O)(OCC)C(Cc1ccc(O)cc1)c1sc2ccccc2c1Br (centres unmarked) [Cpd 324]"
  % I (0.5 μM): "54%"
- compound: "CC(C)OP(=O)(OC(C)C)C(Cc1ccc(O)c(F)c1)c1sc2ccccc2c1Br (centres unmarked) [Cpd 227]"
  % I (0.5 μM): "52%"

Incoming: Any idea what % I (0.5 μM) was measured for CCOP(=O)(OCC)C(Cc1cc(C(F)(F)F)ccc1Cl)c1sc2ccccc2c1Cl (centres unmarked) [Cpd 274] ?
Outgoing: 95%

----------
Target: canine TRPM8 (Canis lupus familiaris, UniProt Q1A7N1)
Construct: expressed in transfected cells
Experiment: In vitro canine TRPM8 functional assay (Ca2+-sensitive dye, icilin activation; Table 4 TRPM8 Screening)
Assay type: cell-based
Settings: compound at 1 μM; HEK293 cells expressing canine TRPM8, icilin activation
Reported % I (1 μM) is given for each of the following compounds.
Lab book: enter the figure in %, no units written.

Recorded results for 3 compounds are shown here.
- compound: "CCOP(=O)(OCC)C(Cc1cc(F)cc(F)c1Cl)c1sc2ccccc2c1C (stereo not drawn) [Cpd 28]"
  units-symbol: "%"
  % I (1 μM): 100
- compound: "CCOP(=O)(CC(C)C)C(Cc1ccc(F)c(F)c1)c1sc2ccccc2c1C (stereo not drawn) [Cpd 6]"
  units-symbol: "%"
  % I (1 μM): 100
- compound: "CC(C)OP(=O)(OC(C)C)C(Cc1cc(C(F)(F)F)cc(Cl)c1F)c1cc2ccccc2s1 (stereo not drawn) [Cpd 126]"
  units-symbol: "%"
  % I (1 μM): 100

Incoming: Give % I (1 μM) (canine TRPM8 (Canis lupus familiaris, UniProt Q1A7N1)) of the following compound: CCOP(=O)(OCC)C(Cc1cc(C(F)(F)F)cc(C(F)(F)F)c1)c1cc2ccccc2s1 (stereo not drawn) [Cpd 96]
Outgoing: 92

Incoming: Which measured % I (1 μM) belongs to CCOP(=O)(Cc1cc2ccccc2s1)OCc1ccccc1 (stereo not drawn) [Cpd 111] , tested on canine TRPM8 (Canis lupus familiaris, UniProt Q1A7N1)?
Outgoing: 14

Incoming: Missing value: % I (1 μM), canine TRPM8 (Canis lupus familiaris, UniProt Q1A7N1), entry COP(=O)(OC)C(Cc1ccc(F)c(F)c1)c1sc2ccccc2c1Br (stereo not drawn) [Cpd 201] . Fill in?
Outgoing: 100

Incoming: Query % I (1 μM) on canine TRPM8 (Canis lupus familiaris, UniProt Q1A7N1) for CCOP(=O)(OCC)C(Cc1cc2c(cc1Cl)OCO2)c1cc2ccccc2s1 (stereo not drawn) [Cpd 112]
Outgoing: 42

Incoming: Given the entry CCOP(=O)(OCC)C(Cc1ccc(F)c(F)c1)c1c(C)c2ccccc2[s+]1[O-] (stereo not drawn) [Cpd 118] , what % I (1 μM) was observed with canine TRPM8 (Canis lupus familiaris, UniProt Q1A7N1)?
Outgoing: 23

Incoming: State its % I (1 μM) on canine TRPM8 (Canis lupus familiaris, UniProt Q1A7N1): CCOP(=O)(OCC)C(Cc1ccc(F)c(F)c1)c1cc2cccnc2s1 (stereo not drawn) [Cpd 131]
Outgoing: 28

Incoming: Request: % I (1 μM), test system canine TRPM8 (Canis lupus familiaris, UniProt Q1A7N1), entry CC(C)OP(=O)(OC(C)C)C(Cc1ccc(F)cc1)c1sc2ccccc2c1Br (stereo not drawn) [Cpd 197]
Outgoing: 100

Incoming: Record lookup: for canine TRPM8 (Canis lupus familiaris, UniProt Q1A7N1), what % I (1 μM) belongs to CC(C)OP(=O)(OC(C)C)C(Cc1cccc(C(F)(F)F)c1)c1cc2ccccc2s1 (stereo not drawn) [Cpd 69] ?
Outgoing: 99

Incoming: Which % I (1 μM) is reported with canine TRPM8 (Canis lupus familiaris, UniProt Q1A7N1) for this entry: CCOP(=O)(OCC)C(Cc1ccccc1Br)c1sc2ccccc2c1C (stereo not drawn) [Cpd 66] ?
Outgoing: 100
